Reference for the values: the supplement of paper PMC6755084

B1: minF1; a variant is named by its letters at N, in order (parent)
chain: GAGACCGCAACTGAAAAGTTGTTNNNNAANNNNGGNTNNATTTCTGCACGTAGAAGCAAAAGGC

Variants of: B1
Assay: fraction ligated after 30 min (ligated reads / total reads); higher = more ligase activity
Conditions: with F1*subA RNA substrate (template-directed ligation), 42 °C
assayEndpoint: fraction ligated
Answer with a bare number; do not write a unit.

Example variants with recorded fraction ligated:
{"columns": ["residueCodes", "testResult"],
 "data": [
  ["GAGACCGCAACTGAAAAGTTGTTATCGAAAGGATGGTTGATTTCTGCACGTAGAAGCAAAAGGC [ATCGAGGAGTG G34T]", 0.00393],
  ["GAGACCGCAACTGAAAAGTTGTTAAGAAATGGTGGGTTAATTTCTGCACGTAGAAGCAAAAGGC [AAGATGGTGTA]", 0.00401],
  ["GAGACCGCAACTGAAAAGTTGTTATCAGATATGGGTTGAATTTCTGCACGTAGAAGCAAAAGGC [ATCATATGTGA A28G]", 0.00411],
  ["GAGACCGCAACTGAAAAGTTGTTACAGAAATGGTGGTTGATTTCTGCACGTAGAAGCAAAAGGC [ACAGATGGGTG G34T]", 0.00406]
]}

Continue with the variant presented below.
query: # get_value(readout='fraction ligated', item= GAGACCGCAACTGAAAAGTTGTATCAAATGGTGGGTTGAATTTCTGCACGTAGAAGCAAAAGGC [TCAAGGTGTGA T23A A29T] )
result: 0.00393
